# Assay type: in vivo, human
# measurement.conditions: human, plasma, po, 60 mg, Cmax, single oral 60 mg, moderate renal impairment (eGFR ≥ 30 to ≤ 59), n = 8; adjusted geometric mean (%CV)
experimental.endpoint: Cmax (ng/mL)
Answers are plain numbers, in ng/mL.

Provide only the value of recorded Cmax for C[C@@H]1CCC[C@H](n2cnc(-c3cc(Cl)ccc3-n3cc(Cl)nn3)cc2=O)c2cc(ccn2)-c2c(cnn2C(F)F)NC1=O [milvexian, Milvexian]
406

----------
# Format: in vivo, human
# measurement.conditions: human, plasma, po, 60 mg, AUCt, single oral 60 mg, severe renal impairment; adjusted geometric mean (%CV)
experimental.endpoint: AUC(0-t)
In your response, put the unit directly after the numeric value.

Let me know recorded AUC(0-t) for `C[C@@H]1CCC[C@H](n2cnc(-c3cc(Cl)ccc3-n3cc(Cl)nn3)cc2=O)c2cc(ccn2)-c2c(cnn2C(F)F)NC1=O` , thanks.
7090 ng·h/mL

Source listed as paper PMC9553801.
